Molecular target: T1, human IL-6 (human, UniProt P05231 30-212)
T1 construct: IL-6 flowed over captured antibodies
T1 sequence (P05231 30-212 limits assumed): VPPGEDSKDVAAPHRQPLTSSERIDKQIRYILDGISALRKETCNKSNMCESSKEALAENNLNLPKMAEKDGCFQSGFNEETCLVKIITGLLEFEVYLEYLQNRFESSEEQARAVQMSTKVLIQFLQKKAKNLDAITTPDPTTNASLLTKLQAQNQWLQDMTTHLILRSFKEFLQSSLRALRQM
Test: SPR Biacore, supernatant Ab on Protein A chip, 37 C
Procedure: Antibodies were captured on a Protein A chip (GE) by injecting 1:20 cell supernatant dilutions at 10 μL/min for 60 seconds. […] The sensor chip was regenerated by a 60 seconds injection of 10 mM Glycine pH 1.7 at the flow rate of 50 μL/min. […] For this setup, 1 μg/mL of purified antibody was injected over a Protein A chip at 10 μL/min for 25 seconds. […] The sensor chip was regenerated by a 60 seconds injection of 10 mM Glycine pH 1.7 at flow rate of 50 μL/min. […]
PROPERTY_LABEL: kon
Show the value, then the unit it is measured in.

Return reported kon; argument: anti-IL-6 antibody, heavy chain S35H, G66D / light chain M32L, M50D, N52S, M88Q (antibody, IgG1, V domains shown, Full IgG1 (Expi293); VL = variant III) VH: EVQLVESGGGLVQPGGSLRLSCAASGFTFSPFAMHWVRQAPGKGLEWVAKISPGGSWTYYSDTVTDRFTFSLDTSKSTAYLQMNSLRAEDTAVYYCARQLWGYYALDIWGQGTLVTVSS VL: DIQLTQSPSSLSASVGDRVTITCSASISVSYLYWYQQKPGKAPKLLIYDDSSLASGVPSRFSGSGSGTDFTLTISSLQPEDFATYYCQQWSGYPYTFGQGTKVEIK
3.24e+06 M⁻¹ s⁻¹

The reported numbers originate from patent US20240209076A1.
